Reported absorption maximum values for a set of compounds
experiment: solvent given as SMILES; settings: in CCO
Respond with the bare value in nm.

See these solved cases before continuing.
Cc1nc2c(cc3c4c(cccc42)C(=O)OC3=O)o1 = 360
Cc1cc(=O)oc2ccc3ccc(O)cc3c12 = 350
O=C1c2ccccc2-c2ccc(N3CCN(c4ccccc4)CC3)c3cccc1c23 = 446.8
CCOc1ccc2cc(-c3ccc(C)cc3)c(=O)oc2c1 = 344
CC1=C(Cl)C(/C=C/c2ccc3c(c2)c2ccccc2n3Cc2cn(CCC[P+](c3ccccc3)(c3ccccc3)c3ccccc3)nn2)=[N+]2C1=C(c1ccc(I)cc1)c1c(C)c(Cl)c(C)n1[B-]2(F)F = 612

Now look at this one.
Ask: State, in one line, measured absorption maximum of `c1cc2ccc3ccc(-n4c5ccccc5c5ccccc54)c4ccc(c1)c2c34`
Result: 344

---

assay: solvent given as SMILES; conditions: in c1ccccc1
Note to self: values exactly at 400 nm are true. So absorption maximum at or above 400 nm is true, below is false.

Check out these entries, answers already filled in.
Cc1ccc(-c2cc(-c3ccccc3)c3c(N)nc(N4CCCC4)c(C#N)c3n2)cc1 = true
CCOC(=O)CSc1nc(-c2ccccc2)c(C)c(C#N)c1C#N = false
Oc1ccccc1/N=C/c1ccccc1Oc1ccccc1 = false
O=C1OC(=O)c2ccc(N(c3ccccc3)c3ccc4ccc5cccc6ccc3c4c56)c3cccc1c23 = true
CCC1=C(C)C(=O)n2c1cc1c(C)c(CC(=O)OC)c(C)n1c2=O = true

Ask: Is reported absorption maximum greater than or equal to 400 nm here: `O=c1oc2cc3ccccc3cc2nc1-c1ccccc1`
Result: false

Ask: Is reported absorption maximum greater than or equal to 400 nm here: `CCCCCCCCCCCCCCCCOC(=O)c1ccc(N(c2ccccc2)c2ccccc2)cc1`
Result: false

Ask: Is reported absorption maximum greater than or equal to 400 nm here: `Oc1ccc(/N=C/c2ccccc2Oc2ccccc2)cc1`
Result: false

---

experiment: solvent given as SMILES; details: in Cc1ccccc1
Measure: absorption maximum (nm)
Respond with the bare value in nm.

See these solved cases before continuing.
CC(C)(C)c1ccc2c(c1)c1cc(C(C)(C)C)ccc1n2-c1ccc(C#Cc2ccc(C=C(C#N)C#N)cc2)cc1 = 348
CCCCOC(=O)c1cc(Cl)c2c3c(Cl)cc4c5c(cc(Cl)c(c6c(Oc7ccc(OC)cc7)cc(C(=O)OCCCC)c1c26)c53)C(=O)N(c1c(C(C)C)cccc1C(C)C)C4=O = 519
COc1cc2c(cc1C=C(C#N)C#N)c1ccccc1n2C = 425

Now look at this one.
Ask: State, in one line, measured absorption maximum of `O=C1c2ccc(-c3ccc(N(c4ccccc4)c4ccccc4)cc3)cc2C(=O)c2ccc(-c3ccc(N(c4ccccc4)c4ccccc4)cc3)cc21`
Result: 454

---

experiment: solvent given as SMILES; settings: in ClCCl
Measure: absorption maximum (nm)
Respond with the bare value in nm.

Cc1ccccc1-c1c2ccc(=[N+]3CCCCC3)cc-2oc2cc(N3CCCCC3)ccc12 = 565
CCCCCCn1c(=O)c2c3[nH]c4ccccc4sc3c3c(=O)n(CCCCCC)c(=O)c3c2c1=O = 500
COc1ccc(/C2=C3N=C(C(c4ccccc4)=C/3c3ccccc3)/C(c3ccc(OC)cc3)=c3\[nH]/c(c(-c4ccccc4)c3-c3ccccc3)=C(/c3ccc(OC)cc3)C3=N/C(=C(/c4ccc(OC)cc4)c4[nH]c2c(-c2ccccc2)c4-c2ccccc2)C(c2ccccc2)=C3c2ccccc2)cc1 = 731
COC(=O)C1=C(C(=O)OC)C2(c3ccccc3-c3ccccc32)[C@@H](c2ccc(C)cc2)C=C2c3cc(OC)c(OC)cc3CCN21 = 311
COCCOCCOCCOCC(COCCOCCOCCOC)Oc1cc(/C=C/c2ccc(C=C(C#N)C#N)cc2)c(OC(COCCOCCOCCOC)COCCOCCOCCOC)cc1/C=C/c1ccc(C=C(C#N)C#N)cc1 = 465

Now look at this one.
Ask: State, in one line, measured absorption maximum of `CC1=C(Cc2ccccc2)C(C)=[N+]2C1=C(C)c1c(C)c(-c3csc(N4CCOCC4)n3)c(C)n1[B-]2(F)F`
Result: 522

---

test: solvent given as SMILES; conditions: in CC#N
Reported absorption maximum values for a set of compounds
Could you kindly put the unit after your number?

CCOC(=O)c1c2c3c(ccc(OC)c3c3cc4c(cc13)[Si](C)(C)O[Si]4(C)C)N(C)C2=O = 378 nm
CC(C)(C)c1ccc2c3c(c4ccc(C(C)(C)C)cc4c2c1)=[N+]1C(=C(c2ccccc2)c2cc4c5ccc(C(C)(C)C)cc5c5cc(C(C)(C)C)ccc5c4n2[B-]1(F)F)C=3 = 683 nm
c1ccc(N2c3ccccc3Sc3cc(-c4cccc5nc6ccccc6cc45)ccc32)cc1 = 407 nm

Now look at this one.
Ask: State, in one line, measured absorption maximum of `CCC(CC)COC1=CC2=C3c4cc(OCC(CC)CC)c(-c5ccccc5)n4[B-](F)(F)[n+]4nnn(c43)[B-](F)(F)[N+]2=C1c1ccccc1`
Result: 687 nm

---

Reported absorption maximum values for a set of molecules
test: solvent given as SMILES; details: in ClCCl
Respond with the bare value in nm.

Cn1nc(-c2ccccc2)cc1-c1ccccc1 = 254
CCCC1=C(CCC)c2cccc3c2c(cc2nc4ccccc4nc23)O1 = 499
Cc1c(C(=O)c2ccc3c4cccc5cccc(c6cccc2c63)c54)c2ccc3cccc4c5cccc6ccc1c(c65)c2c34 = 468
N#Cc1ccc(C2=Cc3ccccc3P2(=O)c2ccccc2)cc1 (stereo unspecified) = 350
c1ccc(-n2c3ccccc3c3cc(-c4cccc(-n5c6cccnc6c6c7sc8ccccc8c7ccc65)c4)ccc32)cc1 = 365

Now look at this one.
Ask: State, in one line, measured absorption maximum of COc1ccc(C2=C(c3ccc(OC)cc3)c3cccc4c5c(cc(c34)O2)=NC(C#N)C(C#N)N=5)cc1 (stereo unspecified)
Result: 511

---

test: solvent given as SMILES; conditions: in Cc1ccccc1
Measure: absorption maximum (nm)
Respond with the bare value in nm.

See these solved cases before continuing.
CCCCCCC(CCCCCC)n1c(=O)c2c3ccc4cccc5c6cccc7ccc(c2c1=O)c(c76)c3c45 = 339
CCCCCCC(CCCCCC)N1C(=O)c2cccc3c(-c4ccc(OC)c5cccc(C)c45)ccc(c23)C1=O = 328.8
Cc1ccc(/C(C#N)=C/c2cc(/C=C(\C#N)c3ccc(C)cc3)c(-c3ccc(N(c4ccccc4)c4ccccc4)cc3)cc2-c2ccc(N(c3ccccc3)c3ccccc3)cc2)cc1 = 391

Now look at this one.
Ask: State, in one line, measured absorption maximum of COC1(OC)C2(Cl)c3nc4cc(-c5cccs5)ccc4nc3C1(Cl)C1C[C@H]3[C@@H](CC12)C1(Cl)c2nc4cc(-c5cccs5)ccc4nc2C3(Cl)C1(OC)OC (some centres undefined)
Result: 364

---

experiment: solvent given as SMILES; conditions: in CCO
Reported absorption maximum values for a set of compounds
Respond with the bare value in nm.

Ask: State, in one line, measured absorption maximum of `N#Cc1ccc(-c2ccc(C3=CCCCC3)s2)s1`
Result: 366

Ask: State, in one line, measured absorption maximum of `O=c1c2cc(F)c(N3CCOCC3)cc2oc2cc(N3CCOCC3)c(F)cc12`
Result: 344

Ask: State, in one line, measured absorption maximum of `O=c1cc(C(F)(F)F)c2cc3c4c(c2o1)CCCN4CCC3`
Result: 421

---

assay: solvent given as SMILES; settings: in C1COCCO1
Measure: absorption maximum (nm)
Respond with the bare value in nm.

N#Cc1c(-c2ccccc2)cc(-c2ccccc2)[nH]c1=S = 446
CCC1=C(C2=C(C3=C(CC)S(=O)(=O)c4cc(-c5ccccc5)ccc43)C(F)(F)C(F)(F)C2(F)F)c2ccc(-c3ccccc3)cc2S1(=O)=O = 336
COc1ccc(-c2nc(N)nc(C#N)c2C#N)cc1OC = 347

Ask: State, in one line, measured absorption maximum of `COc1nc(Nc2ccc3c4cccc5cccc(c6cccc2c63)c54)nc(OC)n1`
Result: 443

Ask: State, in one line, measured absorption maximum of `CCC(C)(C)c1ccc(-c2ccc(-c3ccccc3)cc2)cc1`
Result: 287

Ask: State, in one line, measured absorption maximum of `CN(C)c1ccc2cc(C(/C=C/c3cn(C)c4ccccc34)=C(C#N)C#N)c(=O)oc2c1`
Result: 452

Ask: State, in one line, measured absorption maximum of `COc1ccc(OC)c(C=O)c1`
Result: 348

Ask: State, in one line, measured absorption maximum of `COc1ccc(C2=N/C(=C\c3ccccc3)C(=O)O2)cc1OC`
Result: 378

Ask: State, in one line, measured absorption maximum of `c1ccc(-c2cc(-c3ccccc3)cc(-c3ccccc3)c2)cc1`
Result: 250

Ask: State, in one line, measured absorption maximum of `CC1=NN(c2ccccc2)C(=O)/C1=C/c1cn(-c2ccccc2)nc1-c1ccccc1`
Result: 366
